# tested system: S100A4
# method summary: FP; direct
Give measured Kd for each item. Keep answers brief.
Quick note: give the figure in µM, leave out the unit.

Q. Which Kd is listed for SEGLMNVLKKIYEDG [SIP (188-202) peptide] ?
A. 42

Q. Would you kindly share the measured Kd for VLQTWLQDLLRRGLVRAAQ [TRPM4 (129-147) peptide] ?
A. 5.9

Q. What value of Kd has been reported for the following binder? RRLLFYKYVYKR [NCX1 (254-265) peptide]
A. 15

Q. Quick one: Kd for RKLQRELEDATETADAMNREVSSLKNKLRRGDLPFVVPRRMARK [NMIIA (1894-1937) peptide] ?
A. 0.026
